Tested on: multiple myeloma cell line NCI-H929
Experiment: H929 Cell Viability Assay
Format: cell-based, human
Settings: Homo sapiens; NCI-H929 cells, 48 hours, Celltiter-Glo; read-out: 48 hr H929 Viability Celltiter-Glo: Mean EC50
EXPERIMENTAL ENDPOINT: EC50 (µM)

cpd_smiles=O=C(Nc1nc(/C=C/c2ncn(C3CC3)c2Cl)cs1)c1cc(Cl)cn1Cc1ccnc(F)c1 measured_on="multiple myeloma cell line NCI-H929" measurement_unit=µM limit_sign== val=10.2
cpd_smiles=O=C(Nc1nc(/C=C/c2ccc3occc3c2)cs1)c1cccn1Cc1ccnc(F)c1 measured_on="multiple myeloma cell line NCI-H929" measurement_unit=µM limit_sign=> val=25
cpd_smiles=COc1cc(C(=O)Nc2nc(/C=C/c3ncn(C4CC4)c3Cl)cs2)n(Cc2ccnc(F)c2F)c1 measured_on="multiple myeloma cell line NCI-H929" measurement_unit=µM limit_sign=> val=25
cpd_smiles=O=C(Nc1nc(/C=C/c2ccc(OC(F)F)cn2)cs1)c1cccn1Cc1ccnc(F)c1 measured_on="multiple myeloma cell line NCI-H929" measurement_unit=µM limit_sign== val=8.75
cpd_smiles=[2H]C([2H])([2H])Oc1cc(C(=O)Nc2nc(/C=C/c3ncn(C4CC4)c3Cl)cs2)n(Cc2ccnc(F)c2F)c1 measured_on="multiple myeloma cell line NCI-H929" measurement_unit=µM limit_sign=> val=25
cpd_smiles=O=C(Nc1nc(/C=C/c2ncn(C3CC3)c2Cl)cs1)c1cc(SC(F)F)cn1Cc1ccnc(F)c1 measured_on="multiple myeloma cell line NCI-H929" measurement_unit=µM limit_sign=> val=25
cpd_smiles=CC(C)n1cnc(/C=C/c2csc(NC(=O)c3cc(OC(F)F)cn3Cc3ccnc(F)c3)n2)c1Cl measured_on="multiple myeloma cell line NCI-H929" measurement_unit=µM limit_sign== val=19.5
cpd_smiles=CC(C)n1cnc(/C=C/c2csc(NC(=O)c3cccn3Cc3ccnc(F)c3)n2)c1C#N measured_on="multiple myeloma cell line NCI-H929" measurement_unit=µM limit_sign== val=8.36

---

Test system: multiple myeloma cell line NCI-H929
Test: H929 Cell Viability Assay
Assay type: cell-based, human
Conditions: Homo sapiens; NCI-H929 cells, 48 hours, Celltiter-Glo; read-out: 48 hr H929 Viability Celltiter-Glo: Mean EC50
pEC50: −log10 of the molar value.
Below, each of the compounds is paired with its reported pEC50 value.
EXPERIMENTAL ENDPOINT: pEC50

cpd_smiles=O=C(Nc1nc(/C=C/c2cccc(F)c2)cs1)c1cccn1Cc1ccnc(F)c1 limit_sign== val=4.82
cpd_smiles=N#Cc1c(/C=C/c2csc(NC(=O)c3cc(OC(F)F)cn3Cc3ccnc(F)c3)n2)ncn1C1CC1 limit_sign== val=4.75
cpd_smiles=[2H]C([2H])(c1ccnc(F)c1)n1cc(Cl)cc1C(=O)Nc1nc(/C=C/c2ncn(C3CC3)c2Cl)cs1 limit_sign== val=4.92
cpd_smiles=Cc1c(Cn2cc(OC(F)F)cc2C(=O)Nc2nc(/C=C/c3ncn(C4CC4)c3Cl)cs2)ccnc1F limit_sign=< val=4.60

---

Test: Liver Microsome Stability Assay, rat
Assay type: in vitro ADME
Conditions: rat liver microsomes 1.0 mg/mL, 1.0 uM compound, 37° C., 1 mM NADPH
EXPERIMENTAL ENDPOINT: Liver Microsome Stability (Multiple Species): Rat - % Remaining after 30 min w/ NADPH (%)

cpd_smiles=O=C(Nc1nc(/C=C/c2ncn(C3CC3)c2Cl)cs1)c1cc(SC(F)(F)F)cn1Cc1ccnc(F)c1 limit_sign== val=65
cpd_smiles=Cc1nc(/C=C/c2csc(NC(=O)c3cccn3Cc3ccnc(F)c3)n2)ccc1C#N limit_sign=< val=1
cpd_smiles=C/C(=C\c1cn(C(C)C)cn1)c1csc(NC(=O)c2cccn2Cc2ccnc(F)c2)n1 limit_sign== val=1
cpd_smiles=N[C@H]1CC[C@@H](/C=C/c2csc(NC(=O)c3cccn3Cc3ccncc3)n2)CC1 limit_sign== val=47
cpd_smiles=COc1cc(C(=O)Nc2nc(/C=C/c3ncn(C(C)C)c3Cl)cs2)n(Cc2ccnc(F)c2)c1 limit_sign== val=72
cpd_smiles=CC(C)n1cnc(F)c1/C=C/c1csc(NC(=O)c2cccn2Cc2ccnc(F)c2)n1 limit_sign== val=8
cpd_smiles=O=C(Nc1nc(/C=C/c2cn(C(F)F)cn2)cs1)c1cc(Cl)cn1Cc1ccnc(F)c1 limit_sign== val=42
cpd_smiles=O=C(Nc1nc(/C=C/c2ccc(OC3CC3)cc2F)cs1)c1cccn1Cc1ccnc(F)c1 limit_sign== val=41
